assay: yeast display, Sf9 membrane polyspecificity reagent, FACS + sequencing; frameworks hold sequencing errors
REPORTED ENDPOINT: polyreactivity (PSR sort gate)

Below, 5 sequences whose answers are already recorded.
QVHLVESGGGIVQAGGSLRLSCAASGSTFGYYAMGWYRQAPGKERELVAAITTRGTRTYADSVKGRFTISRDNAKNTVYLQMNSLKPEDTAVYYCNAYEWGDFVLYTTDYDYWGQGTHVTVSS: high polyreactivity
QVQLVESGGGLVQAGGSLRLSCAASGSIFAPYAMGWYRQAPGKEREFVATITWGGGRTYYADSVKGRFTISRDNAKNTVYLQMNSLKPEDTAVYYCAAAIYYGSLGLFDYWGQGTQVTVSS: high polyreactivity
QVQLVESGGGLVQAGGSLRLSCAASGIILSYYVMGWYRQAPGKERELVAAISLRGGSRTYYADSVNGRFTISRDNAKNTVYLQMNSLKPEDTAVYYCAKLRWVYGRQTLMDYWGQGTQVTVSS: high polyreactivity
QVQLVESGGGLVQAGGSLRLSCAASGFAFSYYAMGWYRQAPGKEREFVASIDWSGGSTYYADSVKGRFTISRDIAKTTVYLQMNRLKPEDTAVYYCAAELDYFPGYDYWGQGTQVTVSS: low polyreactivity
QVQLVESGGGLVQAGGSLRLSCAASGGMGWYRQAPGKERELVATISSVGSTNYADSVKGRFTISRDNAKNTVYLQMNRLKPEDTAVYYCNATGVQYFLYGYWGQGTQVTVSS: low polyreactivity

### Prompt Would you mind telling me what polyreactivity (PSR sort gate) value was observed for QVQLVESGGGLVQAGGSLRLSCAASGFTFRDYAMGWYRQAPGKERELVATITWRVGSTFYADSVKGRFTISRDNAKNTVYLQMNSLKPEDTAVYYCADEDSNVVAYDYWGQGTQVTVSS ?
### Response low polyreactivity

### Prompt Would you mind telling me what polyreactivity (PSR sort gate) value was observed for QVHLVESGGGLVQAGGSLRLSCAASGSIFLVYAMGWYRPAPGKERELVAVISNGGRTNYADSVKGRFTISRDNAKNTVYLQMNSLKPEDTAVYYCAVRGPTDYWADPYSAGDHWGQGTQVTVSS ?
### Response high polyreactivity

### Prompt Would you mind telling me what polyreactivity (PSR sort gate) value was observed for QVQLVESGGGLVQAGGSLRLSCAASGSTCAANAMGWYRQAPGKERELVAGISESVDRTYADSVKGRFTISRDNAKNTVYLQMNSLKPEDTAVYYCKVGANVYLLYFPSRGGVYDYGYWGQGTQVTVSS ?
### Response low polyreactivity

### Prompt Would you mind telling me what polyreactivity (PSR sort gate) value was observed for QVQLVESGGGLVQAGGSLRLSCAASGFIFWSYAMGWYIQAPGKERELVAAINTSGDSTYYADSVKGRFTISRDNAKNTVYLQMNSLKPEDTAVYYCAAKSSTRGDYWGQGTQVTVSS ?
### Response low polyreactivity

### Prompt Would you mind telling me what polyreactivity (PSR sort gate) value was observed for QVQLVESGGGLVQAGGSLRLSCAASGSTFWSNAMGWYRQAPGKERELVAAISISDGNTYYADSVKVRFTISRDNAKNTVYLQMNSLKPEDTAVYYCATVGSEDGDPGFDYWGQGTQVTVSS ?
### Response low polyreactivity

### Prompt Would you mind telling me what polyreactivity (PSR sort gate) value was observed for QVQHVESGGGLVQAGGSLRLNCAASGSTFFGNAMGWYRQAPGKERELVAAISGSGGSTYYADSVKGRFTISRDNAKNTVYLQMNSLKPEDTAVYYCAKYYLTGLARYDYWGQGTQVTVSS ?
### Response high polyreactivity

### Prompt Would you mind telling me what polyreactivity (PSR sort gate) value was observed for QVQLEESGGGLDQAGGSLRLSCAASAIIFALYARGWYSQARGKHRELVATITYSGGSTNYADSLKGRYTISRDNAKNPVYLLMHSLKPEDTAVYYCAAASVPWGGYYSGQGTQVTVSS ?
### Response low polyreactivity

### Prompt Would you mind telling me what polyreactivity (PSR sort gate) value was observed for QVQLVESGGGLVQAGGSLRLSCAASGLTFSYYTMGCYRQAPGKERELVARISNRGTNTYYADSVKGRFTISRDNAKNTVYLQMNSLKPEDTAVYYCAKYYYTSIVGYDSWGQGTQVTVSS ?
### Response low polyreactivity

### Prompt Would you mind telling me what polyreactivity (PSR sort gate) value was observed for QVQLVESGGGLVQAGGRLRLSCAASGSIFRYYAMGWYRQATGKERELVAAITRGDSTNYADSVKGRFTISRDNAKNTVYLQMNSLKPEDTAVYYCAASRYHGWYVKMGYWGQGTQVTVSS ?
### Response high polyreactivity

### Prompt Would you mind telling me what polyreactivity (PSR sort gate) value was observed for QVQLVESGGGLVQAGGSLRLSCAASGYIFGVYVMGSYRQAPGKERELVAAITRGGGNTYYADSVKGRFTISRDNAKNSVYLQMNSLKPEDTAVYYCAARSLKSLSRYYYWGQGTQVTVSS ?
### Response high polyreactivity

### Prompt Would you mind telling me what polyreactivity (PSR sort gate) value was observed for QVQLVDSGGGLVQAGGSLRLSCAASGRILSTYPMGWYRPAPGKERELVAAITRTSGSTYYADSVKGRFTISRDNAKNTVFLQMNSLKPEDTEVYYCAADTWLITWSGQYNSWGQGTQVTVSS ?
### Response low polyreactivity

### Prompt Would you mind telling me what polyreactivity (PSR sort gate) value was observed for QVQLVESGGGLVQAGGSLRLSCAASGSTFQSYAMGWYRQAPGKERELVASITRTGGTTYYADSVKGRFTISRDNAKNTVYLQMNSLKPEDTAVYYCNADLGQPISLDDFDYWGQGTQVTVSS ?
### Response low polyreactivity

### Prompt Would you mind telling me what polyreactivity (PSR sort gate) value was observed for QVQLVESGGGLVQAGGSLRLSCAASGSTFVSNAMGWYRQAPGKERELVAGITFSGGSTYYADSVKGRFTISRDNAKNTVYLQMNSLKPEDTAVYYCAAEFHWWYAGYDYGYWGQGTQVTASS ?
### Response low polyreactivity

### Prompt Would you mind telling me what polyreactivity (PSR sort gate) value was observed for QVQLVESCGGLVQAGGSLRLSSAASGRIFYAYVMGWYRQAPGKERELVADITSSGSTNYADTVKGRFTISRDNAKKTVYLQLISLKQEDTAVFYCAKVPYGYQVRRNFGYWGQGTQVTVSS ?
### Response low polyreactivity

### Prompt Would you mind telling me what polyreactivity (PSR sort gate) value was observed for QVLLVESGGGLVQAGGSLRLSCAATARNFKYNTMGWYRQAPGKERELVAAISISGGSTYYADSVKGRFRISRDNSKNTVYLQMNSLKPEDTAVYYCNADTTYLSDYVTFAYWGQVTQVTVSS ?
### Response low polyreactivity

### Prompt Would you mind telling me what polyreactivity (PSR sort gate) value was observed for QVQLVESGGGLVQAGGSLRLSCAASGRTIPAYTMGWYRQAPGKERELVAAINWSGGSTYYADSVKARFTISRDNAKNCVYLQMISLNPEDTAVYYCARTSRYYGFRSYGTLDYWGQGTQVTVSS ?
### Response high polyreactivity
